# Tested on: OVCAR-5 ovarian
# assay_summary: NCI tumour cell line growth inhibition, 48 h
experimental_readout: TGI

Asked: Retrieve TGI measured for Cc1ccc(C(=O)OCC(C)C)cc1N=NN(C)C and print it.
Given back: > 100 µM

Asked: Retrieve TGI measured for CNC(=O)Oc1cc(C)c(/C=C/c2cncc(C(=O)NC)c2)c(C)c1 and print it.
Given back: > 25 µM

Asked: Retrieve TGI measured for COC1CC(NC(=O)C(F)(F)F)C(OC(C)=O)C(C)O1 (centres undefined) and print it.
Given back: > 100 µM

Asked: Retrieve TGI measured for Cc1cc(Oc2ccc3nc(COc4ccc(CC5SC(=O)NC5=O)cc4)n(C)c3c2)cc(C)c1N (centres undefined) and print it.
Given back: > 100 µM

###

# Test system: SK-MEL-28 melanoma
# assay_summary: NCI tumour cell line growth inhibition, 48 h; in the data active means GI50 below about 0.43 µM; inactive means the rest
Pick one and only one: active, inactive

Asked: Lab log entry: COc1ccc(-c2c(-c3cc(OC)c(OC)c(OC)c3)noc2N)cc1 — outcome as called in the assay?
Given back: active

Asked: Lab log entry: C/C(=C(\c1ccc(OCCN2CCCCCC2)cc1)c1ccc(OC(=O)Cc2ccccc2)cc1)c1ccc(Cl)cc1 — outcome as called in the assay?
Given back: inactive

Asked: Lab log entry: COC(=O)[C@H](Cc1ccc(O)cc1)NC(=O)[C@@H](OC)[C@@H]1Cc2cc3cc(OC4CC(OC5CC(O)C(O)C(C)O5)C(O)C(C)O4)c(C)c(O)c3c(O)c2C(=O)[C@H]1OC1CC(OC2CC(OC3CC(C)(O)C(O)C(C)O3)C(O)C(C)O2)C(O)C(C)O1 (stereo partly drawn) — outcome as called in the assay?
Given back: active

Asked: Lab log entry: O=C(NCc1ccco1)c1ccc(NC2=C(Cl)C(=O)N(Cc3ccccc3)C2=O)cc1 — outcome as called in the assay?
Given back: inactive

Asked: Lab log entry: O=C1OC(c2ccccc2)(c2cc(Br)c(O)c(Br)c2)c2ccccc21 (stereo not drawn) — outcome as called in the assay?
Given back: inactive

Asked: Lab log entry: NC1=NCCN1CC(=O)O — outcome as called in the assay?
Given back: inactive

Asked: Lab log entry: CCN(CC)CCCC(C)N=c1cc(Nc2cc(=NC(C)CCCN(CC)CC)c3cc(OC)ccc3o2)oc2ccc(OC)cc12 (stereo not drawn) — outcome as called in the assay?
Given back: inactive

Asked: Lab log entry: CN1CC(CNC(=O)OCc2ccccc2)CC2c3cccc4c3c(cn4C)CC21 (stereo not drawn) — outcome as called in the assay?
Given back: inactive

Asked: Lab log entry: Cc1cc(O)cc(C)c1/C=C/c1cncc(-c2nn[nH]n2)c1 — outcome as called in the assay?
Given back: inactive

Asked: Lab log entry: COc1ccc(-c2nc(N3CCN(C(=O)C4CCCCC4)CC3)c3c4c(sc3n2)CCCC4)cc1 — outcome as called in the assay?
Given back: inactive

Asked: Lab log entry: Cc1cn2c(/C=N/N=C(N)N)c(-c3cccnc3)nc2s1 — outcome as called in the assay?
Given back: inactive

Asked: Lab log entry: O=C(NCc1ccncc1)C12CC3CC(C1)CC(c1ccc(Cl)cc1)(C3)C2 — outcome as called in the assay?
Given back: inactive

Asked: Lab log entry: Nc1c(C(=O)c2ccc(CCCN3CCOCC3)cc2)cnn1-c1ccc(F)cc1 — outcome as called in the assay?
Given back: inactive

###

Task for the reader: assign each of the following compounds its reported TGI.
# System: HCT-116 colon
# assay_summary: NCI tumour cell line growth inhibition, 48 h

Asked: Retrieve TGI measured for CCCCCCCCCCCCOC1C(C(CC(=O)N2CCN(c3cccc(C(F)(F)F)c3)CC2)NS(=O)(=O)c2cc(Cl)cc(Cl)c2)OC2OC(C)(C)OC21 (stereo not given) and print it.
Given back: > 100 µM

Asked: Retrieve TGI measured for CC(C)N1CN(C(C(=O)N[C@@H]2C(=O)N3C2SC(C)(C)C3C(=O)O)c2ccc(O)cc2)CSC1=S (stereo not given in full) and print it.
Given back: > 100 µM

Asked: Retrieve TGI measured for C[n+]1ccc(-c2c3nc(c(-c4cc[n+](C)cc4)c4ccc([n-]4)c(-c4cc[n+](C)cc4)c4nc(c(-c5cc[n+](C)cc5)c5ccc2[n-]5)C=C4)C=C3)cc1.[I-].[Zn+2] and print it.
Given back: > 100 µM

Asked: Retrieve TGI measured for CCCCCCc1nc2nc(Cl)c(Cl)nc2[nH]1 and print it.
Given back: > 100 µM

Asked: Retrieve TGI measured for COc1c(OC/C=C(\C)CCC=C(C)C)ccc2ccc(=O)oc12 and print it.
Given back: > 100 µM

Asked: Retrieve TGI measured for CCC1C(=O)C(O)[C@H]2[C@@H]3C(O)CC4=CC(=O)CC[C@]4(C)[C@H]3CC[C@]12C (stereo not given in full) and print it.
Given back: > 50 µM

Asked: Retrieve TGI measured for COC(=O)/C=C(/OC)[C@H](C)[C@H](/C=C/c1csc(-c2csc(C(C)C)n2)n1)OC and print it.
Given back: > 100 µM

Asked: Retrieve TGI measured for O=[N+]([O-])c1c(C=Nc2ccccc2)oc(-c2ccc3c(c2)OCO3)c1-c1ccc2c(c1)OCO2 and print it.
Given back: > 100 µM

Asked: Retrieve TGI measured for CC1OC(OC2C(CO)OC(O[C@H]3CC[C@@]4(C)C(=CC[C@H]5[C@@H]6C[C@@H]7O[C@]8(CC[C@@H](C)CN8)[C@@H](C)[C@@H]7[C@@]6(C)CC[C@@H]54)C3)C(O)C2O)C(O)C(O)C1O (stereo not given in full) and print it.
Given back: > 100 µM

Asked: Retrieve TGI measured for C#CCCCOc1ncccn1 and print it.
Given back: > 100 µM

Asked: Retrieve TGI measured for COc1ccc2nc3ccccc3c(NCCCN(C)CCCl)c2c1 and print it.
Given back: 1.36 µM

Asked: Retrieve TGI measured for CC(=O)NNC(=O)C1CCCCN1 (stereo not given) and print it.
Given back: > 100 µM

Asked: Retrieve TGI measured for CSc1nc(SC)c2ncn(C3CC(Oc4ccc(C)cc4)C(COc4ccc(C)cc4)O3)c2n1 (stereo not given) and print it.
Given back: > 100 µM

Asked: Retrieve TGI measured for Fc1cccc2c1cc1ccc3cccc4ccc2c1c34 and print it.
Given back: > 100 µM

Asked: Retrieve TGI measured for N#CC1=C(N)NC(=S)NC12Nc1ccccc1N2 and print it.
Given back: > 100 µM

Asked: Retrieve TGI measured for CN(Cc1ccccc1)C(=NC#N)N(C)Cc1ccccc1 and print it.
Given back: > 100 µM

Asked: Retrieve TGI measured for CNC(=O)c1cccc2c(Nc3ccc(NS(C)(=O)=O)cc3OC)c3cccc(C)c3nc12 and print it.
Given back: 2.86 µM

Asked: Retrieve TGI measured for SC1CCCN(Cc2ccccc2)C1 (stereo not given) and print it.
Given back: > 100 µM

Asked: Retrieve TGI measured for O=C(/C=C/c1ccccc1)N1CCCCC1 and print it.
Given back: > 100 µM

Asked: Retrieve TGI measured for COc1ccc(/C(CC2OC(=O)c3ccccc32)=N\NC(=O)C[N+](C)(C)C)cc1 (stereo not given) and print it.
Given back: 81.9 µM

Asked: Retrieve TGI measured for CCOC(=O)c1ccc(NC(=O)SCCC(=O)O)cc1 and print it.
Given back: > 100 µM

Asked: Retrieve TGI measured for Clc1cc2n[se]nc2cc1Cl and print it.
Given back: > 100 µM

Asked: Retrieve TGI measured for COC1O[C@H]2[C@H]3[C@@H]1[C@@H](OS(=O)(=O)c1ccc(C)cc1)C(=O)N3C[C@H]2O (stereo not given in full) and print it.
Given back: > 100 µM

Asked: Retrieve TGI measured for CC1=C[P+](Cc2ccccc2)(c2ccccc2)CC1 (stereo not given) and print it.
Given back: > 100 µM

Asked: Retrieve TGI measured for CC[C@@]1(O)C(=O)OCc2c1cc1n(c2=O)Cc2c-1nc1cc3c(cc1c2C)OCO3 and print it.
Given back: 15.1 µM

Asked: Retrieve TGI measured for CCOC(=O)/C(=C(/C)NCC(C)C)c1cc(O)c(O)c2c(C)cc(=O)[nH]c12 and print it.
Given back: 30.6 µM

Asked: Retrieve TGI measured for c1ccc(CN=C(NCc2ccccc2)NCc2ccccc2)cc1 and print it.
Given back: 17.3 µM

Asked: Retrieve TGI measured for COc1cc(S(=O)(=O)Nc2nc(-c3ccc(N4C(=O)/C(=C/c5ccccc5[N+](=O)[O-])N=C4c4ccccc4)cc3)cs2)ccc1Cl and print it.
Given back: > 100 µM

Asked: Retrieve TGI measured for CN(C)Cc1cc(C=O)cc(CN(C)C)c1O and print it.
Given back: > 100 µM

Asked: Retrieve TGI measured for OC1C2CCC1C1C3C=CC(C3)C21 (stereo not given) and print it.
Given back: > 100 µM

Asked: Retrieve TGI measured for COC(=O)c1ccc(Cl)cc1NC(=O)C1CCCCC1 and print it.
Given back: > 100 µM

Asked: Retrieve TGI measured for NCCN1C(=O)C2C3c4ccccc4C(c4ccccc43)C2C1=O (stereo not given) and print it.
Given back: > 100 µM

Asked: Retrieve TGI measured for O=c1[nH]c(=O)n(C2CC(O)C(CO)O2)cc1OCC1CCCCC1 (stereo not given) and print it.
Given back: > 100 µM

Asked: Retrieve TGI measured for CCCCCCCCCCCCCCCCOP(=O)(O)OP(=O)(O)OCC1OC(n2ccc(N)nc2=O)C(O)C1O (stereo not given) and print it.
Given back: > 100 µM

Asked: Retrieve TGI measured for [O-][n+]1onc2c1/C(=N/O)CCC2 and print it.
Given back: > 100 µM
